Assay: Static contact angle (wettability) of wax-coated surfaces, Attension Theta tensiometer
Type: physicochemical
Parameters: unit not given here
Conditions: spray coated on Si wafer, 5 seconds×4 cycles; wax solution; liquid Water
Description: Typically, but not exclusively, in order to measure the static contact angle, a drop of liquid is formed on the tip of a hypodermic needle attached to a screw syringe. […] The static contact angle is calculated by methods known in the art. […] The wettability of the surfaces was characterized using water contact angle (C.A.) measurements recorded with an Attension Theta tensiometer. […] Contact angles and RMS roughness were measured as described in Example 2 hereinabove.
Listing of recorded C.A. Water by entry.

# structure-notation, C.A. Water
measured = [
    ("FC(F)(F)C(F)(F)C(F)(F)C(F)(F)C(F)(F)C(F)(F)C(F)(F)C(F)(F)C(F)(F)C(F)(F)C(F)(F)C(F)(F)C(F)(F)C(F)(F)C(F)(F)C(F)(F)C(F)(F)C(F)(F)C(F)(F)C(F)(F)C(F)(F)C(F)(F)C(F)(F)C(F)(F)F", 141),
    ("CCCCCCCCCCCCCCCCCCCCCCCCCCCCCCCCCCCCCCCC", 85),
    ("FC(F)(F)C(F)(F)C(F)(F)C(F)(F)C(F)(F)C(F)(F)C(F)(F)C(F)(F)C(F)(F)C(F)(F)C(F)(F)C(F)(F)C(F)(F)C(F)(F)C(F)(F)F", 114),
    ("CCCCCCCCCCCCCCCCCCCCCCCCCCCCCCCCCCCC", 75),
    ("CCCCCCCCCCCCCCCCCCCCCCCCCCCCCCCCCCCCCCCCCCCC", 96),
]

---

Test: RMS roughness of wax-coated surfaces by confocal microscopy
Assay type: physicochemical
Conditions: spray coated on Si wafer, 5 seconds×4 cycles; wax solution
This section presents compounds with their documented Roughness (RMS) values.

# structure-notation, Roughness (RMS)
measured = [
    ("CCCCCCCCCCCCCCCCCCCCCCCCCCCCCCCCCCCC", "0.07-0.1 μm"),
    ("FC(F)(F)C(F)(F)C(F)(F)C(F)(F)C(F)(F)C(F)(F)C(F)(F)C(F)(F)C(F)(F)C(F)(F)C(F)(F)C(F)(F)C(F)(F)C(F)(F)C(F)(F)F", "0.12 μm"),
    ("FC(F)(F)C(F)(F)C(F)(F)C(F)(F)C(F)(F)C(F)(F)C(F)(F)C(F)(F)C(F)(F)C(F)(F)C(F)(F)C(F)(F)C(F)(F)C(F)(F)C(F)(F)C(F)(F)C(F)(F)C(F)(F)C(F)(F)C(F)(F)C(F)(F)C(F)(F)C(F)(F)C(F)(F)F", "0.12 μm"),
    ("CCCCCCCCCCCCCCCCCCCCCCCCCCCCCCCCCCCCCCCC", "0.06-0.09 μm"),
]

---

Test: Static contact angle (wettability) of wax-coated surfaces, Attension Theta tensiometer
Type: physicochemical
Set-up: unit not given here
Conditions: thermally-evaporated wax on Silicon substrate; liquid Clorobenzene

# molecule, C.A. Clorobenzene
data = [
    ("CCCCCCCCCCCCCCCCCCCCCCCCCCCCCCCCCCCCCCCCCCCC", "Fully wetted"),
    ("CCCCCCCCCCCCCCCCCCCCCCCCCCCCCCCCCCCC", "Fully wetted"),
    ("FC(F)(F)C(F)(F)C(F)(F)C(F)(F)C(F)(F)C(F)(F)C(F)(F)C(F)(F)C(F)(F)C(F)(F)C(F)(F)C(F)(F)C(F)(F)C(F)(F)C(F)(F)C(F)(F)C(F)(F)C(F)(F)C(F)(F)C(F)(F)F [C20, perfluoroeicosane, reference compound]", "Fully wetted"),
    ("CCCCCCCCCCCCCCCCCCCCCCCCCCCCCCCCCCCCCCCC", "Fully wetted"),
    ("FC(F)(F)C(F)(F)C(F)(F)C(F)(F)C(F)(F)C(F)(F)C(F)(F)C(F)(F)C(F)(F)C(F)(F)C(F)(F)C(F)(F)C(F)(F)C(F)(F)C(F)(F)C(F)(F)C(F)(F)C(F)(F)C(F)(F)C(F)(F)C(F)(F)C(F)(F)C(F)(F)C(F)(F)F", 138),
    ("CCCCCCCCCCCCCCCCCCCCCCCCCCCCCCCCCCCCCCCCCCCCCCCCCC", "Fully wetted"),
]

---

Assay: Static contact angle (wettability) of wax-coated surfaces, Attension Theta tensiometer
Assay type: physicochemical
Set-up: unit not given here
Settings: thermally-evaporated wax on Silicon substrate; liquid Glycerol
C.A. Glycerol by entry:
observable: C.A. Glycerol

# compound, measured
data = [
    ("CCCCCCCCCCCCCCCCCCCCCCCCCCCCCCCCCCCC", 133),
    ("CCCCCCCCCCCCCCCCCCCCCCCCCCCCCCCCCCCCCCCCCCCC", 130),
    ("FC(F)(F)C(F)(F)C(F)(F)C(F)(F)C(F)(F)C(F)(F)C(F)(F)C(F)(F)C(F)(F)C(F)(F)C(F)(F)C(F)(F)C(F)(F)C(F)(F)C(F)(F)C(F)(F)C(F)(F)C(F)(F)C(F)(F)C(F)(F)F [C20, perfluoroeicosane, reference compound]", 120),
]

---

Experiment: Static contact angle (wettability) of wax-coated surfaces, Attension Theta tensiometer
Format: physicochemical
Design: unit not given here
Conditions: thermally-evaporated wax on Silicon substrate; liquid Ethylene Glycol
Procedure: Typically, but not exclusively, in order to measure the static contact angle, a drop of liquid is formed on the tip of a hypodermic needle attached to a screw syringe. […] The static contact angle is calculated by methods known in the art. […] The wettability of the surfaces was characterized using water contact angle (C.A.) measurements recorded with an Attension Theta tensiometer. […] Contact angles and RMS roughness were measured as described in Example 2 hereinabove.

# molecule, C.A. Ethylene Glycol
rows = [
    ("CCCCCCCCCCCCCCCCCCCCCCCCCCCCCCCCCCCCCCCCCCCC [C44, tetratetracontane]", 103),
    ("CCCCCCCCCCCCCCCCCCCCCCCCCCCCCCCCCCCC [C36, hexatriacontane]", 121),
    ("FC(F)(F)C(F)(F)C(F)(F)C(F)(F)C(F)(F)C(F)(F)C(F)(F)C(F)(F)C(F)(F)C(F)(F)C(F)(F)C(F)(F)C(F)(F)C(F)(F)C(F)(F)C(F)(F)C(F)(F)C(F)(F)C(F)(F)C(F)(F)F [C20, perfluoroeicosane, reference compound]", 122),
]

---

Experiment: Static contact angle (wettability) of wax-coated surfaces, Attension Theta tensiometer
Format: physicochemical
Parameters: unit not given here
Conditions: spray coated on Si wafer, 5 seconds×4 cycles; wax solution; liquid Ethylene Glycol
Label TRUE when C.A. Ethylene Glycol < 60; otherwise FALSE.

# molecule, category
measured = [
    ("CCCCCCCCCCCCCCCCCCCCCCCCCCCCCCCCCCCC [C36, hexatriacontane]", "TRUE"),
    ("CCCCCCCCCCCCCCCCCCCCCCCCCCCCCCCCCCCCCCCC [C40, tetracontane]", "FALSE"),
    ("FC(F)(F)C(F)(F)C(F)(F)C(F)(F)C(F)(F)C(F)(F)C(F)(F)C(F)(F)C(F)(F)C(F)(F)C(F)(F)C(F)(F)C(F)(F)C(F)(F)C(F)(F)C(F)(F)C(F)(F)C(F)(F)C(F)(F)C(F)(F)C(F)(F)C(F)(F)C(F)(F)C(F)(F)F [C24, perfluorotetracosane]", "FALSE"),
]
